test system: Homo sapiens (human subject panel, olfactory perception); assay: perceived odor intensity rating (rating 0-100); higher = stronger perceived smell; conditions: odor dilution in paraffin oil: 1/10
Assign t whenever perceived odor intensity rating does not fall below 50; assign f whenever it does.

Challenge: Please check the record C=C(C)[C@@H]1CC[C@@H](C)C[C@H]1O [(-)-Isopulegol] and state if its perceived odor intensity rating is at or above 50.
Response given: t

Challenge: # bool: perceived odor intensity rating of O=C(OCCc1ccccc1)c1ccccc1O [Phenethyl salicylate] >= 50
Response given: f

Challenge: Check if perceived odor intensity rating >= 50 (inclusive). Item: CCCCCCOC(=O)c1ccccc1 [Hexyl benzoate]
Response given: t

Challenge: Identify whether the reported perceived odor intensity rating of the following molecule is 50 or greater: C[C@H](N)C(=O)O [L-Alanine]
Response given: f

Challenge: Hello, I need to know if Cc1cc(C(C)(C)C)c(O)c(C(C)(C)C)c1 [Butylated hydroxytoluene] has measured perceived odor intensity rating not below 50. Thanks!
Response given: f

Challenge: API: above_or_equal(metric=perceived odor intensity rating, cutoff=50) for item N[C@@H](CCC(=O)O)C(=O)O [L-Glutamic acid]
Response given: t

Challenge: Is perceived odor intensity rating for CSCC[C@H](N)C(=O)O [L-Methionine] at or above 50?
Response given: t

Challenge: Is perceived odor intensity rating at least 50? Consider CCCCCCCCCCCCCC(=O)OCC [Ethyl myristate]
Response given: f

Challenge: Could you tell me if the measured perceived odor intensity rating of CCCCCCCCCCC(=O)OCC [Ethyl undecanoate] reaches 50 or more?
Response given: t

Challenge: Check the entry CCCCCC(CC)OC(C)=O (centres undefined) [3-Octyl Acetate] : does perceived odor intensity rating equal or exceed 50?
Response given: t

Challenge: Does the molecule CCCCCCCCCCCC(=O)OCCC(C)C [Isoamyl laurate] have recorded perceived odor intensity rating that is 50 or more?
Response given: t

Challenge: Check if perceived odor intensity rating >= 50 (inclusive). Item: CCCCCCCCCCCCCCCCCC(=O)OCC [Ethyl stearate]
Response given: f

Challenge: Check the entry NCCCC[C@H](N)C(=O)O [L-Lysine] : does perceived odor intensity rating equal or exceed 50?
Response given: t

Challenge: Threshold query (perceived odor intensity rating >= 50) on CC(=O)OC/C=C(/C)CCC=C(C)C [Neryl acetate]
Response given: t

Challenge: Test whether the molecule CC(C)COC(=O)/C=C/c1ccccc1 [Isobutyl cinnamate] records perceived odor intensity rating of 50 or higher.
Response given: t

Challenge: Please tell me: is the molecule O=C(O)C(O)C(O)C(=O)O (racemic) [DL-Tartaric acid] at or over 50 in terms of perceived odor intensity rating?
Response given: f

Challenge: Does perceived odor intensity rating meet or surpass 50 for CCOC(=O)CCCCCCCCC(=O)OCC [Diethyl sebacate] ?
Response given: t

Challenge: Is the recorded value of perceived odor intensity rating equal to or greater than 50 for this molecule? CCCCCCCCCC(=O)OCC [Ethyl decanoate]
Response given: t

Challenge: Please tell me: is the molecule O=C(/C=C/C=C/c1ccc2c(c1)OCO2)N1CCCCC1 [Piperine] at or over 50 in terms of perceived odor intensity rating?
Response given: t

Challenge: Confirm if perceived odor intensity rating reported for the molecule COc1cc(C=O)ccc1OC(C)=O [Vanillin Acetate] is 50 or above.
Response given: t

Challenge: Textbook exercise: given the entry OCC(O)CO [glycerol] , state whether its perceived odor intensity rating is greater than or equal to 50.
Response given: f

Challenge: Item CCCCCCCCCC(=O)O [decanoic acid] with perceived odor intensity rating of 50 or above?
Response given: t

Challenge: Quick check: does COc1cc(C(C)=O)ccc1O [Acetovanillone] have perceived odor intensity rating greater than or equal to 50?
Response given: t

Challenge: Tell me whether perceived odor intensity rating is at least 50 here: O=C1CCCCCN1 [epsilon-Caprolactam]
Response given: f

###

tested on: Homo sapiens (human subject panel, olfactory perception); experiment: perceived odor intensity rating (rating 0-100); higher = stronger perceived smell; details: odor dilution in paraffin oil: 1/1,000
Assay Readout: perceived odor intensity rating
Give only the figure.

Challenge: Look up perceived odor intensity rating for this compound: O=C(O)/C=C/c1ccccc1 [trans-Cinnamic acid]
Response given: 59.5

Challenge: Would you mind telling me what perceived odor intensity rating value was observed for NC(Cc1ccccc1)C(=O)O (racemic) [DL-Phenylalanine] ?
Response given: 35.2

Challenge: Endpoint output: perceived odor intensity rating of CC/C=C\CCO [cis-3-Hexen-1-ol] . Value?
Response given: 81.9

Challenge: Reported perceived odor intensity rating for CCCCCC(=O)CCCCC [6-Undecanone] : what is it?
Response given: 43.3

Challenge: What measured perceived odor intensity rating goes with CCCCCC(=O)CC [3-octanone] ?
Response given: 69.7

Challenge: For the compound shown here, CCOC(=O)/C=C/c1ccccc1 [ethyl cinnamate] , give the reported perceived odor intensity rating.
Response given: 61.5

Challenge: Suppose we examine the compound CC1=CC(=O)CC(C)(C)C1=O [4-Oxoisophorone] ; what perceived odor intensity rating value has been reported?
Response given: 49.2

Challenge: Give the measured perceived odor intensity rating of CCCCOC(=O)CCC [butyl butyrate] .
Response given: 57.9

Challenge: Tell me the measured perceived odor intensity rating of CC/C=C\CCOC(=O)c1ccccc1O [cis-3-Hexenyl salicylate] , please.
Response given: 49.2

Challenge: Query (compound): CC(=O)OC(C)C [isopropyl acetate (replicate)] ; field requested: perceived odor intensity rating
Response given: 49.4

Challenge: Name the recorded perceived odor intensity rating for COc1ccccc1C=O [o-Anisaldehyde (replicate)] .
Response given: 72.1

Challenge: // perceived odor intensity rating lookup, key: O=C(O)c1ccccc1 [Benzoic acid]
Response given: 30.3

Challenge: Given O=C1CCc2ccccc2O1 [Dihydrocoumarin] , state its recorded perceived odor intensity rating.
Response given: 70.9

Challenge: Recorded perceived odor intensity rating for CCCCCCCC [Octane] , please?
Response given: 13.9

Challenge: What does the record list as perceived odor intensity rating for C=CCc1ccc(OC)cc1 [4-Allylanisole] ?
Response given: 60.8

Challenge: Could you tell me which perceived odor intensity rating is on file for CCCCCCCCCCCC(=O)OCCC(C)C [Isoamyl laurate] ?
Response given: 20.3

Challenge: Give the measured perceived odor intensity rating of O=C(O)C(O)C(O)C(=O)O (racemic) [DL-Tartaric acid] .
Response given: 26.4

Challenge: What value of measured perceived odor intensity rating is listed for CC(=O)CCc1ccc(O)cc1 [4-(4-Hydroxyphenyl)-2-butanone] ?
Response given: 46.3

Challenge: // query perceived odor intensity rating value for entry OC1CSC(O)CS1 (centres undefined) [2,5-Dihydroxy-1,4-dithiane]
Response given: 88.4

Challenge: # lookup: perceived odor intensity rating of CCCCCCCCCCCCCCCCO [1-Hexadecanol]
Response given: 35.8

Challenge: If you can, please state the reported perceived odor intensity rating value of CCCCC(=O)OCC [Ethyl Valerate] .
Response given: 75.2

Challenge: Give its perceived odor intensity rating value. Item: NCCC(=O)O [beta-Alanine]
Response given: 33.9

Challenge: Return reported perceived odor intensity rating; argument: C/C=C/c1ccc(OC)cc1 [trans-Anethole]
Response given: 64.3

Challenge: What value of measured perceived odor intensity rating is listed for CC/C=C\CCOC(=O)CC [cis-3-Hexenyl propionate] ?
Response given: 61.7

Challenge: perceived odor intensity rating for CCCCCCCCCCC=O [undecanal] ?
Response given: 68.2

Challenge: Report perceived odor intensity rating for CCCCCOC(C)=O [pentyl acetate] please.
Response given: 64.8

Challenge: I am curious: what perceived odor intensity rating value has been reported for Cc1ncsc1CCO [4-Methyl-5-thiazoleethanol] ?
Response given: 73.1

Challenge: # perceived odor intensity rating lookup, item Cc1ccccc1C=O [o-Tolualdehyde]
Response given: 78.1

Challenge: Any idea what perceived odor intensity rating was measured for CC1CCCC(=O)O1 (centres undefined) [delta-Hexalactone] ?
Response given: 48.4

Challenge: Given the compound CCCCOC(C)=O [butyl acetate] , what is its reported perceived odor intensity rating?
Response given: 76.5

Challenge: Give the measured perceived odor intensity rating of CCCCCCCCOC(=O)CC(C)C [Octyl isovalerate] .
Response given: 28.9

Challenge: # query: perceived odor intensity rating of entry CC(=O)OCC(COC(C)=O)OC(C)=O [Triacetin]
Response given: 45.1

Challenge: Which perceived odor intensity rating reading was recorded for the compound CCC(=O)OCCc1ccccc1 [Phenethyl propionate] ?
Response given: 49.9

Challenge: Field request: perceived odor intensity rating | item: CC(C)COC(=O)Cc1ccccc1 [Isobutyl phenylacetate]
Response given: 52

Challenge: Which measured perceived odor intensity rating value corresponds to COc1ccccc1OC(C)=O [2-Methoxyphenyl acetate] ?
Response given: 74.2

Challenge: Which perceived odor intensity rating is listed for CCCCC(C)=O [2-hexanone] ?
Response given: 71.4

Challenge: perceived odor intensity rating lookup needed for OCCCc1ccccc1 [3-Phenyl-1-propanol] , thanks.
Response given: 63.3

Challenge: Reported perceived odor intensity rating, compound Cc1cscn1 [4-Methylthiazole] : ____
Response given: 60.7

Challenge: # query: perceived odor intensity rating of entry C=CCOC(=O)CCC1CCCCC1 [Allyl cyclohexanepropionate]
Response given: 57.9

Challenge: Would you mind telling me what perceived odor intensity rating value was observed for CCCCOC(=O)CC(CC(=O)OCCCC)(OC(C)=O)C(=O)OCCCC [Tributyl-2-Acetylcitrate] ?
Response given: 6.93

Challenge: Any idea what perceived odor intensity rating was measured for CCCCCCCCCOC(C)=O [Nonyl acetate] ?
Response given: 37.1

Challenge: Would you kindly share the measured perceived odor intensity rating for CCCCCCCC(=O)OCC [Ethyl octanoate] ?
Response given: 54.7

Challenge: Record request: perceived odor intensity rating value, item CC(C)(C)O [tert-butanol]
Response given: 24.8

Challenge: What value of perceived odor intensity rating has been reported for the following compound? CCCCC/C=C/CO [trans-2-Octen-1-ol]
Response given: 69.6

Challenge: Would you kindly share the measured perceived odor intensity rating for CCCCCCCCC(C)=O [2-decanone] ?
Response given: 44.8

Challenge: Entry CC(=O)OCCc1scnc1C [4-Methyl-5-thiazoleethanol acetate] : reported perceived odor intensity rating = ?
Response given: 66.3

Challenge: What perceived odor intensity rating value was documented for this compound, O=C(O)CCCCC(=O)O [Adipic acid] ?
Response given: 14

Challenge: Return reported perceived odor intensity rating; argument: CSCC[C@H](N)C(=O)O [L-Methionine]
Response given: 48.3

Challenge: Requested read-out: perceived odor intensity rating. Entry: C=CC1(C)CCC(C(C)(C)O)O1 (centres undefined) [linalool oxide]
Response given: 44.4

The measured values listed here are drawn from the supplement of paper PMC4977894.
